molecular target: 6-phosphogluconate dehydrogenase, decarboxylating (Saccharomyces cerevisiae) (UniProt P38720)
Sequence (P38720 whole entry, looked up): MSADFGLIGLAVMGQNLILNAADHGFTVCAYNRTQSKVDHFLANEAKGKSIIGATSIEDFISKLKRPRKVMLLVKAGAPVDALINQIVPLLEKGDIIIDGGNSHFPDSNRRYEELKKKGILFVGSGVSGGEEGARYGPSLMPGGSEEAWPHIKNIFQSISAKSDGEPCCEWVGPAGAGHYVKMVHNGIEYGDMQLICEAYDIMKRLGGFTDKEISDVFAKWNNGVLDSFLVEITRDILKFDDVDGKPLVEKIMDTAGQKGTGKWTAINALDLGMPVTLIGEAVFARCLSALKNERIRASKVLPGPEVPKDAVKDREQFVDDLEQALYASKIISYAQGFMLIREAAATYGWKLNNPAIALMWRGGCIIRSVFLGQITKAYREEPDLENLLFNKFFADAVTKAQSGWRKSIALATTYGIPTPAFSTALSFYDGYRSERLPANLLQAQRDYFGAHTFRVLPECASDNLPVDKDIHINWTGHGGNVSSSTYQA
# pIC50 per entry
To interpret pIC50, take it as minus log10 of a concentration measured in moles per litre.

*Q* Using known records, supply pIC50 for O=C(O[C@@H]1Cc2c(O)cc(O)cc2O[C@H]1c1ccc(O)c(O)c1)c1cc(O)c(O)c(O)c1 [(-)-CATECHINGALLATE]
*A* 5.89

Next:
*Q* Using known records, supply pIC50 for O=C(O[C@@H]1Cc2c(O)cc(O)cc2O[C@H]1c1cc(O)c(O)c(O)c1)c1cc(O)c(O)c(O)c1 [GALLOCATECHIN GALLATE]
*A* 5.84

*Q* Using known records, supply pIC50 for O=C(O[C@@H]1Cc2c(O)cc(O)cc2O[C@@H]1c1ccc(O)c(O)c1)c1cc(O)c(O)c(O)c1 [EPICATECHIN GALLATE]
*A* 5.92

*Q* Using known records, supply pIC50 for O=C(O[C@@H]1Cc2c(O)cc(O)cc2O[C@@H]1c1cc(O)c(O)c(O)c1)c1cc(O)c(O)c(O)c1 [EPIGALOCATECHIN GALLATE]
*A* 6.14

====

Target: Glucose-6-phosphate 1-dehydrogenase (Saccharomyces cerevisiae S288c)
Sequence (P11412 whole entry): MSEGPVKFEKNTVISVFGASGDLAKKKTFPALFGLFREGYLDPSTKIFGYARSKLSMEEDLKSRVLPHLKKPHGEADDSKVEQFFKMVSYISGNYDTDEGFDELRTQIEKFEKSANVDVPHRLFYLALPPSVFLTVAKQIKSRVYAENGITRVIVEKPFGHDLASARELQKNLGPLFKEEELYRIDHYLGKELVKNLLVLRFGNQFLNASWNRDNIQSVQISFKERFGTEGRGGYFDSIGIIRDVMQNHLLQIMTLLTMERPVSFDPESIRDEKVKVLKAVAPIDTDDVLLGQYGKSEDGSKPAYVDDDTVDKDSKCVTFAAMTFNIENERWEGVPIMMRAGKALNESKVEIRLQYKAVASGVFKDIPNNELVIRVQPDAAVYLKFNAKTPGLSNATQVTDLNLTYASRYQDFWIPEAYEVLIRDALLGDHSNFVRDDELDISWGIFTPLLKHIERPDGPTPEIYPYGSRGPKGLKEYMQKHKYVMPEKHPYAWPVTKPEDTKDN
Test: Inhibition of yeast G6PD
# log10 IC50 per entry
For clarity, the numbers are log10 values of IC50 expressed in µM.

// known answers, use as guide
*Q* // output log10 IC50; input O=C(O[C@@H]1Cc2c(O)cc(O)cc2O[C@H]1c1ccc(O)c(O)c1)c1cc(O)c(O)c(O)c1 [(-)-CATECHINGALLATE] ; system Glucose-6-phosphate 1-dehydrogenase (Saccharomyces cerevisiae S288c)
*A* -0.62

*Q* // output log10 IC50; input O=C(O[C@@H]1Cc2c(O)cc(O)cc2O[C@@H]1c1ccc(O)c(O)c1)c1cc(O)c(O)c(O)c1 [EPICATECHIN GALLATE] ; system Glucose-6-phosphate 1-dehydrogenase (Saccharomyces cerevisiae S288c)
*A* -0.74

Next:
*Q* // output log10 IC50; input O=C(O[C@@H]1Cc2c(O)cc(O)cc2O[C@@H]1c1cc(O)c(O)c(O)c1)c1cc(O)c(O)c(O)c1 [EPIGALOCATECHIN GALLATE] ; system Glucose-6-phosphate 1-dehydrogenase (Saccharomyces cerevisiae S288c)
*A* -0.60

*Q* // output log10 IC50; input Oc1cccc(/C=N/NC(=S)N/N=C/c2cccc(O)c2O)c1O ; system Glucose-6-phosphate 1-dehydrogenase (Saccharomyces cerevisiae S288c)
*A* 1.75

*Q* // output log10 IC50; input O=C(O[C@@H]1Cc2c(O)cc(O)cc2O[C@H]1c1cc(O)c(O)c(O)c1)c1cc(O)c(O)c(O)c1 [GALLOCATECHIN GALLATE] ; system Glucose-6-phosphate 1-dehydrogenase (Saccharomyces cerevisiae S288c)
*A* -0.64
